Give IC50 for every item shown.
- tested system: Delta-type opioid receptor (Homo sapiens)
- Sequence (P41143 whole entry): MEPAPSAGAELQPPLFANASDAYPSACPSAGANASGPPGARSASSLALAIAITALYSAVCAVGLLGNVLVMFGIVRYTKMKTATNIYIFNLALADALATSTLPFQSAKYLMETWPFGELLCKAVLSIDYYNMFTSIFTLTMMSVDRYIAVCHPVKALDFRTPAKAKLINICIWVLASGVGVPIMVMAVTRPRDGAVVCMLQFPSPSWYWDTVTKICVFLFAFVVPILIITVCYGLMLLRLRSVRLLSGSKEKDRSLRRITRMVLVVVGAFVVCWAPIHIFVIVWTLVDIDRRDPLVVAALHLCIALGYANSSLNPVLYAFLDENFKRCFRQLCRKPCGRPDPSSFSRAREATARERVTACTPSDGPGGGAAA
- assay: Antagonist activity assessed as inhibition of BW373U86-stimulated [35S]GTP-gamma-S binding to human delta opioid receptor expressed in CHO cells
Lab note: write values as number then unit, every time.

Recorded IC50 for C[C@H]1CN2C[C@H](c3ccccc3)N(C)C[C@H]2C[C@@]1(C)c1cccc(O)c1 with Delta-type opioid receptor (Homo sapiens), please? 580 nM

Any idea what IC50 came out for C[C@H]1CN2C[C@H](C3CCCCC3)NC[C@H]2C[C@@]1(C)c1cccc(O)c1 on Delta-type opioid receptor (Homo sapiens)? 28 nM

For the record C[C@H]1CN2C[C@H](c3ccccc3)NC[C@H]2C[C@@]1(C)c1cccc(C(N)=O)c1 , what value of IC50 is listed for Delta-type opioid receptor (Homo sapiens)? 110 nM

Query the reported IC50 for Delta-type opioid receptor (Homo sapiens); item: Cc1ccccc1CN1CCN2C[C@H](C)[C@](C)(c3cccc(O)c3)C[C@@H]2C1 62 nM

Param readout = IC50; param system = Delta-type opioid receptor (Homo sapiens); param query = C[C@H]1CN2CCN(CCc3ccccc3)C[C@H]2C[C@@]1(C)c1cccc(O)c1 ; response: value 310 nM

For the record C[C@H]1CN2C[C@H](c3ccccc3)CC[C@H]2C[C@@]1(C)c1cccc(O)c1 , what value of IC50 is listed for Delta-type opioid receptor (Homo sapiens)? 51 nM

====

- tested system: Kappa-type opioid receptor (Homo sapiens)
- Sequence (P41145 whole entry): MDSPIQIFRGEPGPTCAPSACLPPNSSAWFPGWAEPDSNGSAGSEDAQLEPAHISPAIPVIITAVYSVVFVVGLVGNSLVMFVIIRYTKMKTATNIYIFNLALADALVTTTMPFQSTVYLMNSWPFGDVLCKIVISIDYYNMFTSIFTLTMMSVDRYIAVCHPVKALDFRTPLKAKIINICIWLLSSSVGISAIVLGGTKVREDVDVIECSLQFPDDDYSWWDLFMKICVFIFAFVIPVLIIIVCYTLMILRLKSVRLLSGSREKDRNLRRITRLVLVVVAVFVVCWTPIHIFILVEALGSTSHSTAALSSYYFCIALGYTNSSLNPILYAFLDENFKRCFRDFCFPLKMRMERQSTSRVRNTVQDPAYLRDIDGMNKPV
- assay: Inhibition of [3H]diprenorphine binding to human cloned kappa opioid receptor expressed in CHO cells at 10 uM
- Type: cell-based
Label scheme for inhibition: lower than 30% is condition not met, 30% and above is condition met.

Is inhibition at least 30%? Consider C[C@H]1CN2CCN(C(=O)CCc3ccccc3)C[C@H]2C[C@@]1(C)c1cccc(O)c1 condition met

For this molecule, is measured inhibition 30% or higher? C[C@H]1CN2CCN(Cc3ccncc3)C[C@H]2C[C@@]1(C)c1cccc(O)c1 condition met

Could you please find out whether C[C@H]1CN2CCN(S(C)(=O)=O)C[C@H]2C[C@@]1(C)c1cccc(O)c1 has inhibition that meets 30% or exceeds it? condition not met

Could you tell me if the measured inhibition of C[C@H]1CN2C[C@H](c3ccccc3)N(Cc3ccccc3)C[C@H]2C[C@@]1(C)c1ccccc1 reaches 30% or more? condition not met

Could you verify whether the entry C[C@H]1CN2CCN(S(=O)(=O)c3ccccc3)C[C@H]2C[C@@]1(C)c1cccc(O)c1 shows inhibition of no less than 30%? condition met

Determine whether measured inhibition meets or exceeds 30% for COC(=O)c1cccc([C@]2(C)C[C@@H]3CN(Cc4ccccc4)[C@@H](c4ccccc4)CN3C[C@@H]2C)c1 condition not met

For this molecule, is measured inhibition 30% or higher? CC(=O)N1CCN2C[C@H](C)[C@](C)(c3cccc(O)c3)C[C@@H]2C1 condition met

Check the entry C[C@H]1CN2CCN(Cc3ccc(N(C)C)cc3)C[C@H]2C[C@@]1(C)c1cccc(O)c1 : does inhibition equal or exceed 30%? condition met

Can C[C@H]1CN2C[C@H](c3ccccc3)N(Cc3ccccc3)C[C@H]2C[C@@]1(C)c1cccc(C(=O)O)c1 be said to have inhibition at or above 30%? condition not met

Does the reported inhibition for C[C@H]1CN2CCNC[C@H]2C[C@@]1(C)c1cccc(O)c1 fall at or above the 30% mark? condition met

Hi, just wondering whether C[C@H]1CN2CCN(C)C[C@H]2C[C@@]1(C)c1cccc(O)c1 shows inhibition of 30% or higher. condition met

Could you tell me if the measured inhibition of C[C@H]1CN2CCN(Cc3ccnc4ccccc34)C[C@H]2C[C@@]1(C)c1cccc(O)c1 reaches 30% or more? condition met

Data provenance is ChEMBL document CHEMBL1137297.
